Below, each entry is listed alongside its reported Binding of serum SARS-yellow to looped/cyclic peptides of protein N of SARS-CoV Urbani.
test system: antibodies in sera from SARS patients (sera 1a, 1b, 2, 6, 37, 62, London, SARS-yellow, SARS-green); assay type: binding, human
No unit in the answer, please; the number alone is enough.

Below are worked cases with known answers.
RESIDUE_CODES	EXPERIMENTAL_RESULT
VWVATEGALNTPKDH	0.6
VATEGALNTPKDHIG	0.2
HIDAYKTFPPTEPKK	0.0
YRRATRRVRGGDGKM	0.1
LLLLDRLNQLESKVS	0.0
NSTPGSSRGNSPARM	0.4

Sample GGRNGARPKQRRPQG — what was its Binding of serum SARS-yellow to looped/cyclic peptides of protein N of SARS-CoV Urbani?
0.2

Sample PRWYFYYLGTGPEAS — what was its Binding of serum SARS-yellow to looped/cyclic peptides of protein N of SARS-CoV Urbani?
0.8

Sample TNSGPDDQIGYYRRA — what was its Binding of serum SARS-yellow to looped/cyclic peptides of protein N of SARS-CoV Urbani?
0.7

Sample GSRGGSQASSRSSSR — what was its Binding of serum SARS-yellow to looped/cyclic peptides of protein N of SARS-CoV Urbani?
1.6

Sample ANKEGIVWVATEGAL — what was its Binding of serum SARS-yellow to looped/cyclic peptides of protein N of SARS-CoV Urbani?
0.6

Sample WLTYHGAIKLDDKDP — what was its Binding of serum SARS-yellow to looped/cyclic peptides of protein N of SARS-CoV Urbani?
0.2

Sample LLNKHIDAYKTFPPT — what was its Binding of serum SARS-yellow to looped/cyclic peptides of protein N of SARS-CoV Urbani?
0.4

Sample DLIRQGTDYKHWPQI — what was its Binding of serum SARS-yellow to looped/cyclic peptides of protein N of SARS-CoV Urbani?
0.3

Sample AAEASKKPRQKRTAT — what was its Binding of serum SARS-yellow to looped/cyclic peptides of protein N of SARS-CoV Urbani?
0.2

Sample RQGTDYKHWPQIAQF — what was its Binding of serum SARS-yellow to looped/cyclic peptides of protein N of SARS-CoV Urbani?
0.8

Sample NPNNNAATVLQLPQG — what was its Binding of serum SARS-yellow to looped/cyclic peptides of protein N of SARS-CoV Urbani?
0.5

Sample NNNAATVLQLPQGTT — what was its Binding of serum SARS-yellow to looped/cyclic peptides of protein N of SARS-CoV Urbani?
0.4

Sample NGARPKQRRPQGLPN — what was its Binding of serum SARS-yellow to looped/cyclic peptides of protein N of SARS-CoV Urbani?
0.4

Sample RVRGGDGKMKELSPR — what was its Binding of serum SARS-yellow to looped/cyclic peptides of protein N of SARS-CoV Urbani?
0.6

###

tested on: antibodies in sera from SARS patients (sera 1a, 1b, 2, 6, 37, 62, London, SARS-yellow, SARS-green); type: binding, human
EXPERIMENTAL_READOUT: Binding of serum 2 to linear peptides of protein N of SARS-CoV Urbani
No unit in the answer, please; the number alone is enough.

RESIDUE_CODES	EXPERIMENTAL_RESULT
SWFTALTQHGKEELR	0.2

Sample KMKELSPRWYFYYLG — what was its Binding of serum 2 to linear peptides of protein N of SARS-CoV Urbani?
0.1

Sample RFPRGQGVPINTNSG — what was its Binding of serum 2 to linear peptides of protein N of SARS-CoV Urbani?
0.3

Sample AIKLDDKDPQFKDNV — what was its Binding of serum 2 to linear peptides of protein N of SARS-CoV Urbani?
0.2

Sample KEGIVWVATEGALNT — what was its Binding of serum 2 to linear peptides of protein N of SARS-CoV Urbani?
0.2

Sample QRQKKQPTVTLLPAA — what was its Binding of serum 2 to linear peptides of protein N of SARS-CoV Urbani?
0.3

Sample NGPQSNQRSAPRITF — what was its Binding of serum 2 to linear peptides of protein N of SARS-CoV Urbani?
0.2
